All values here come from patent US20150110781A1.

# subject of test: CVS-11 rabies virus (rabies virus) (UniProt O92284)
# assay explanation: cell-based or functional assay
reported metric: Neutralization potency (IU/mg), FAVN
A number alone suffices; assume IU/mg.

Solved entries (count: 3):
Record summary for Mouse CT.RV 7G11A3 2G11 (antibody, V domains shown) VH: EVQLVESGGGLVKPGGSLILSCAASGFTFSGFAMSWVRQTPEKRLEWVATISSGGTYTYSPDSVMGRFTISRDNAKNTLYLQMSSLRSEDTAMYYCARRLRRNYYSMDYWGQGTSVTVSS VL: DVVLTQAPLSLPVNIGDQASISCKSTKSLLNSDGFTYLDWYLQKPGQSPQLLIYLVSNRFSGVPDRFSGSGSGTDFTLKISRVEAEDLGIYFCFQSNYLPFTFGSGTKLEIK : reported Neutralization potency (IU/mg), FAVN = 8310

// field: Neutralization potency (IU/mg), FAVN; key: Hu1A9-2 (antibody, V domains shown) VH: QVQLVQSGAEVKKPGASVKVSCKASGYSFTDYIMLWVRQAPGQRLEWIGDIYPYYGSTSYNLKFKGKATLTVDTSASTAYMELSSLRSEDTAVYYCARQGGDGNYVLFDYWGQGTLVTVSS VL: DIQMTQSPSSLSASVGDRVTITCKASQNVGTTVAWYQQKPGKAPKVLIYSASYRYSGVPSRFSGSGSGTDFTLTISSLQPEDFATYYCQQYNSYPFTFGQGTKLEIKR ; value = 405

Recorded result, Mouse CT.RV 3D11E3 1A9 (antibody, V domains shown) VH: EIQLQQTGPELVKPGASVKISCKASGYSFTDYIMLWVKQSHGKSLEWIGDIYPYYGSTSYNLKFKGKATLTVDKSSSTAYMQLNSLTSEDSAVYYCARQGGDGNYVLFDYWGQGTTLTVSS VL: DIVMTQSQKFMSTSVGDRVSVTCKASQNVGTTVAWYQQKPGQSPKALIYSASYRYSGVPDRFTGSGSGTDFTLTISNVQSEDLAEYFCQQYNSYPFTFGSGTKLEIK , Neutralization potency (IU/mg), FAVN: 308

***
Value of Neutralization potency (IU/mg), FAVN reported for the binder Hu1A9-1 (antibody, V domains shown) VH: QVQLVQSGAEVKKPGASVKVSCKASGYSFTDYIMLWVRQAPGQRLEWIGDIYPYYGSTSYNLKFKGKATLTVDTSASTAYMELSSLRSEDTAVYYCARQGGDGNYVLFDYWGQGTLVTVSS VL: DIQMTQSPSSLSASVGDRVTITCKASQNVGTTVAWYQQKPGKAPKALIYSASYRYSGVPSRFSGSGSGTDFTLTISSLQPEDFATYYCQQYNSYPFTFGQGTKLEIKR is 2100
